Test system: HEK-293 cell line
Assay: MTT assay, toxicity on normal cell line HEK-293
Type: cell-based, human
Conditions: Homo sapiens, HEK293, 48 h, read-out: IC50 against HEK-293
pIC50: −log10 of the molar value.

smiles-repr | target-or-test-system | inequality-symbol | pIC50
Cn1c(=O)c2c(nc(Oc3ccc(C(=O)/C=C/c4ccc(Cl)cc4Cl)cc3)n2C)n(C)c1=O | HEK-293 cell line | = | 3.46
Cn1c(=O)c2c(nc(Oc3ccc(/C=C/C(=O)c4ccc5ccccc5c4)cc3)n2C)n(C)c1=O | HEK-293 cell line | < | 3.30
Cn1c(=O)c2c(nc(Oc3ccc(C(=O)/C=C/c4ccccc4)cc3)n2C)n(C)c1=O | HEK-293 cell line | = | 3.66

Data provenance: paper PMC11340408
